molecular target: C-C chemokine receptor type 1 (Homo sapiens); assay: Antagonist activity at human CCR1 receptor expressed in THP1 cells assessed as human MIP-1-alpha-stimulated intracellular calcium level by FLIPR assay; format: functional, cell-based, THP-1
Sequence (P32246 whole entry): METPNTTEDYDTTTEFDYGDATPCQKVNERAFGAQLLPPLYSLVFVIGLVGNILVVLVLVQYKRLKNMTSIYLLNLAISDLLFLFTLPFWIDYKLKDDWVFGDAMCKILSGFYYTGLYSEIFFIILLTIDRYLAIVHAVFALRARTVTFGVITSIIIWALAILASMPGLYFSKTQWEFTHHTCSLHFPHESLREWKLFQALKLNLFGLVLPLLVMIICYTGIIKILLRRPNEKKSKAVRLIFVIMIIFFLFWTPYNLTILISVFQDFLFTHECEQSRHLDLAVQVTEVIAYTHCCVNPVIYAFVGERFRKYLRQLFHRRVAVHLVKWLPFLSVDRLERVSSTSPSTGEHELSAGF
pIC50: −log10 of the molar value.
Quick rule for you: pIC50 at 6 or higher means satisfied, lower means not satisfied.

- Smiles Record: "Cc1ccccc1S(=O)(=O)NCCCN1CCC(O)(c2ccc(Cl)cc2)CC1"
  Label Value: "satisfied"
- Smiles Record: "O=S(=O)(c1ccccc1Cl)N1CCC(N2CCC(O)(c3ccc(Cl)c(F)c3)CC2)CC1"
  Label Value: "satisfied"
- Smiles Record: "O=S(=O)(NCCCN1CCC(O)(c2ccc(Cl)cc2)CC1)c1ccccc1Cl"
  Label Value: "satisfied"
- Smiles Record: "O=S(=O)(NCCCN1CCC(O)(c2ccc(Cl)cc2)CC1)c1ccccc1-c1ccsc1"
  Label Value: "satisfied"

Could you now look at the following compound, please?
Quick check: does O=S(=O)(NCCCN1CCC(O)(c2ccc(Cl)cc2)CC1)c1ccc(C(F)(F)F)cc1 have pIC50 greater than or equal to 6? not satisfied
